Measured Target: PRMT5/MEP50 (Homo sapiens, UniProt O14744)
Construct: Expressed full-length human Flag-PRMT5/6His-MeP50 protein complex was purified; made in house; host or cells: Spodoptera frugiperda (SF9) insect cells, baculovirus (pDEST8)
Sequence (O14744 with tags, fused parts or gaps): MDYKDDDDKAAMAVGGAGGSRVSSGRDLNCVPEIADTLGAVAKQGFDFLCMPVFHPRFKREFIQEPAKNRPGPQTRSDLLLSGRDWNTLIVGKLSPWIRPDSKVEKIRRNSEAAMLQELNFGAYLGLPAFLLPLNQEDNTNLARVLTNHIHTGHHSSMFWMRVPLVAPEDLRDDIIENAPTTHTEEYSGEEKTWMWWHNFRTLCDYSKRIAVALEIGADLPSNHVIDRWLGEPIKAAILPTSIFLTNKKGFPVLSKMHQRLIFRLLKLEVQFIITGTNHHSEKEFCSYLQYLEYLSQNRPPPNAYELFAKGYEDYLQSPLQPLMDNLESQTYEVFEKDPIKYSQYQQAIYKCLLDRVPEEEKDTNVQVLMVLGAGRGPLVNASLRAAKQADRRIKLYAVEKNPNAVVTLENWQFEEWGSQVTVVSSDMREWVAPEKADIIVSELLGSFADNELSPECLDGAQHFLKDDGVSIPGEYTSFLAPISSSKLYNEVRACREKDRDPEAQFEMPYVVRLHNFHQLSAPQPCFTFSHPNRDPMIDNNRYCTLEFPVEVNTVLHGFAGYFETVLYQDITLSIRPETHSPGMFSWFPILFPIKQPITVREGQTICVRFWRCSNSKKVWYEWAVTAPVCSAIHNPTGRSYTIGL
Sequence (Q9BQA1 with tags, fused parts or gaps partner limits assumed): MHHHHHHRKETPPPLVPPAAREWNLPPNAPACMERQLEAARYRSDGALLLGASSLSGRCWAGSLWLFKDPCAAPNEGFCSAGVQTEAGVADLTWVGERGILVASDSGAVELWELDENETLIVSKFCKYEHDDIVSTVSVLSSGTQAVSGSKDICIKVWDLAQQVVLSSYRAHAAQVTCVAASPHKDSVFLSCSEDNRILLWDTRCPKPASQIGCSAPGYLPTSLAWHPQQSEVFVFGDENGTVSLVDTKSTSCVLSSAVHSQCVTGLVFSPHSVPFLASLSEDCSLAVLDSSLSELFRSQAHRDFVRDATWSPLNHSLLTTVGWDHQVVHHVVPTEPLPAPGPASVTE
Experiment Description: PRMT5 Biochemical Assay (PRMT5/MEP50 enzyme assay on peptide substrate, 3H-SAM Flashplate)
Experimental Conditions: Table D-2; read-out: Biochemical IC50
Below, each of the compounds is paired with its reported IC50 value.

Examples from the recorded data:
CC(=O)N1CCC(n2cnc3ccc(-c4ccnc(NCC(O)CN5CCc6ccccc6C5)c4)cc32)CC1 (centres unmarked) [Compound D242] :: 0.101 to 1 µM
OC(COCc1ccncc1)CN1CCc2ccccc2C1 (centres unmarked) [Compound D284] :: 10 to 40 µM
OC(COc1ccccc1N1CCNCC1)CN1CCc2ccccc2C1 (centres unmarked) [Compound D7] :: 10 to 40 µM
COc1cccc(-c2cccc(OCC(O)CN3CCc4ccccc4C3)c2)c1 (centres unmarked) [Compound D74] :: 0.101 to 1 µM
CN1CCC(n2cnc3ccc(-c4cccc(OCC(O)CN5CCc6ccccc6C5)c4)cc32)CC1 (centres unmarked) [Compound D221] :: < 0.1 µM
CN1CC(n2cnc3ccc(-c4ccnc(NCC(O)CN5CCc6ccccc6C5)c4)cc32)C1 (centres unmarked) [Compound D230] :: < 0.1 µM
Cn1cnc2ccc(-c3cccc(OCC(O)CN4CCc5ccccc5C4=O)c3)cc21 (centres unmarked) [Compound D225] :: > 40 µM

QUERY: Let me know recorded IC50 for O=C(Cn1ccc2cnc(-c3cccc(OCC(O)CN4CCc5ccccc5C4)c3)nc21)N1CCCC1 (centres unmarked) [Compound D231] , thanks.
RESULT: 0.101 to 1 µM
